Value source: paper PMC7859723

Test system SARS-CoV-2 3CLpro (Severe acute respiratory syndrome coronavirus 2), IC50 listed for each of the molecules.
ASSAY_METRIC: IC50

                                     smiles  assay_metric  measured
0  O=C1C[C@@H](c2ccc(O)cc2)Oc2cc(O)cc(O)c21          IC50  > 100 µM
1   O=c1cc(-c2ccc(O)c(O)c2)oc2cc(O)cc(O)c12          IC50   89.7 µM
2   O=c1c(O)c(-c2ccc(O)cc2)oc2cc(O)cc(O)c12          IC50  > 100 µM

---

- TARGET_UNDER_TEST: SARS-CoV-2 3CLpro (Severe acute respiratory syndrome coronavirus 2)
pKd: −log10 of the molar value.
ASSAY_METRIC: pKd

                                   compound  assay_metric  measured
0  O=c1cc(-c2ccc(O)c(O)c2)oc2cc(O)cc(O)c12 [Luteolin, luteolin]           pKd      5.79
1  O=c1c(O)c(-c2ccc(O)cc2)oc2cc(O)cc(O)c12 [Kaempferol, kaempferol]           pKd      5.77
2  O=C1C[C@@H](c2ccc(O)cc2)Oc2cc(O)cc(O)c21 [Naringenin, naringenin]           pKd      5.54
